# TARGET_SYSTEM: Human HEX B (Homo sapiens)
# Construct: Hex B protein (isolated from human placenta) was purchased from Sigma Co; purchased Sigma Co; host or cells: human placenta
# TEST_DESCRIPTION: Michaelis-Menten/Lineweaver-Burk kinetic inhibition of Hex B with 4MU-NAG substrate
# Type: biochemical
# EXPERIMENTAL_SETUP: Table 2
Rule: measured Ki below 2 nM gets label 1; anything equal to or greater than 2 nM gets label 0.

COMPOUND	GROUP
CC(=O)NC1CN(CCCCCCCN=[N+]=[N-])C(CO)C(O)C1O (centres unmarked) [Compound 4]	label 0
CC(=O)NC1CN(CCCCCCCN)C(CO)C(O)C1O (centres unmarked) [Compound 1]	label 0
COc1ccc(CN(CCCCCCCN2CC(NC(C)=O)C(O)C(O)C2CO)Cc2ccc(OC)cc2)cc1 (centres unmarked) [Compound 3]	label 1
CC(=O)NC1CN(CCCCCCCNC(=O)CCCCC2SCC3NC(=O)NC32)C(CO)C(O)C1O (centres unmarked) [Compound 5]	label 0
COc1ccc(CNCCCCCCCN2CC(NC(C)=O)C(O)C(O)C2CO)cc1 (centres unmarked) [Compound 2]	label 1

---

# TARGET_SYSTEM: Human O-GlcNAcase (Homo sapiens, UniProt O60502)
# Construct: made in house
# Sequence (O60502 1-916): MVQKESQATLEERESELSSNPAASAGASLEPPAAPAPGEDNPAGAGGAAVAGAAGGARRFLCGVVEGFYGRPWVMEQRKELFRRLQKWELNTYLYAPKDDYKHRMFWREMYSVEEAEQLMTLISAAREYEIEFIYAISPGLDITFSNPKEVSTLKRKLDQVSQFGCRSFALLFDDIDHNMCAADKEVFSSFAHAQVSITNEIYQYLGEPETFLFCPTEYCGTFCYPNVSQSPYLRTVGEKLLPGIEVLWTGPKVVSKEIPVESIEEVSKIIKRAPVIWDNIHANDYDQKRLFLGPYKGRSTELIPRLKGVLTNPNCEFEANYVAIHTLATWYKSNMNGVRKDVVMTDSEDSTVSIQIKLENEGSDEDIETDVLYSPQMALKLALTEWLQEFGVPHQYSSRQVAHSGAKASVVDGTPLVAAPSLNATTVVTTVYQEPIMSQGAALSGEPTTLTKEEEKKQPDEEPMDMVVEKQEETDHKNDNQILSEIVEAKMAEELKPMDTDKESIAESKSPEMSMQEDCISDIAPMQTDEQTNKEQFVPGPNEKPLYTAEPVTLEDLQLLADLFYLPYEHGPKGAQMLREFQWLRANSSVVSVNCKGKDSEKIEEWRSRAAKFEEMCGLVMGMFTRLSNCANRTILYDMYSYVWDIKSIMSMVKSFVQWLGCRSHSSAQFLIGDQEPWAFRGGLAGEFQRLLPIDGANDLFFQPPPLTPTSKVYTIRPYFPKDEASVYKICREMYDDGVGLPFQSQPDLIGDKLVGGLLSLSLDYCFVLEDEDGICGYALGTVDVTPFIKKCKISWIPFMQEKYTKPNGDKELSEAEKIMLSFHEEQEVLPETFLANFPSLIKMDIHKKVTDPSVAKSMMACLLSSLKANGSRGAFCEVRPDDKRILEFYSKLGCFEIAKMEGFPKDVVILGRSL
# TEST_DESCRIPTION: Inhibition of human O-GlcNAcase
# Format: biochemical
# EXPERIMENTAL_SETUP: Human O-GlcNAcase over human HEX B; Table 2

MOLECULE	Selectivity (KI O-GlcNAcase/KI HEX)
CC(=O)NC1CN(CCCCCCCN=[N+]=[N-])C(CO)C(O)C1O (centres unmarked) [Compound 4]	91
COc1ccc(CN(CCCCCCCN2CC(NC(C)=O)C(O)C(O)C2CO)Cc2ccc(OC)cc2)cc1 (centres unmarked) [Compound 3]	250,000
CC(=O)NC1CN(CCCCCCCNC(=O)CCCCC2SCC3NC(=O)NC32)C(CO)C(O)C1O (centres unmarked) [Compound 5]	5,400
COc1ccc(CNCCCCCCCN2CC(NC(C)=O)C(O)C(O)C2CO)cc1 (centres unmarked) [Compound 2]	85,000
CC(=O)NC1CN(CCCCCCCN)C(CO)C(O)C1O (centres unmarked) [Compound 1]	51,000

---

# TARGET_SYSTEM: Human HEX B (Homo sapiens, UniProt P07686)
# Construct: Hex B protein (isolated from human placenta) was purchased from Sigma Co; purchased Sigma Co; host or cells: human placenta
# Sequence (P07686 315-556 limits assumed): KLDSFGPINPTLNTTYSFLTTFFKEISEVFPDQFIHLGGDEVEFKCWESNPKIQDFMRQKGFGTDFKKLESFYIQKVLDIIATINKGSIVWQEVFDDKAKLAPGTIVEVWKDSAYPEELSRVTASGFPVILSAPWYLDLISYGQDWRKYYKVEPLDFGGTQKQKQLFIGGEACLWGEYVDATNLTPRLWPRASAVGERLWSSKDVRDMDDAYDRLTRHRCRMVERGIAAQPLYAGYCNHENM
# Sequence (P07686 122-311 limits assumed): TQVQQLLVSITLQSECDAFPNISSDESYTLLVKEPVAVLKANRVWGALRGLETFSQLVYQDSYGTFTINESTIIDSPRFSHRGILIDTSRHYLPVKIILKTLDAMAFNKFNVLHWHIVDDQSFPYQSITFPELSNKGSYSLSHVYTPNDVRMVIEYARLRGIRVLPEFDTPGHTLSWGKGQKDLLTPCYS
# Sequence (P07686 50-107 partner limits assumed): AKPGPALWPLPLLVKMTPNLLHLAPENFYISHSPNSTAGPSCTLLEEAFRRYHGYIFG
# TEST_DESCRIPTION: Michaelis-Menten/Lineweaver-Burk kinetic inhibition of Hex B with 4MU-NAG substrate
# Type: biochemical
# EXPERIMENTAL_SETUP: Table 1
# Experimental: Hex B protein (isolated from human placenta) was purchased from Sigma Co. […] Hex B: reaction mixture (0.1 nM Hex B (200 μL), 50 mM NaH2PO4, 100 mM NaCl, 0.1% BSA, 0.05-1.5 mM substrate, pH 6.5) was incubated at 30° C. for 25 minutes. […] The enzyme activity was determined as described above. […]
pKi: −log10 of the molar value.
PARAMETER: pKi

COMPOUND	VAL
CC(=O)NC1CN(CCCCCCCNC(=O)CCCCC2SCC3NC(=O)NC32)C(CO)C(O)C1O (centres unmarked) [Compound 5]	7.57
CC(=O)NC1CN(CCCCCCCN)C(CO)C(O)C1O (centres unmarked) [Compound 1]	8.68
CC(=O)NC1CN(CCCCCCCN=[N+]=[N-])C(CO)C(O)C1O (centres unmarked) [Compound 4]	5.77
COc1ccc(CNCCCCCCCN2CC(NC(C)=O)C(O)C(O)C2CO)cc1 (centres unmarked) [Compound 2]	8.92
COc1ccc(CN(CCCCCCCN2CC(NC(C)=O)C(O)C(O)C2CO)Cc2ccc(OC)cc2)cc1 (centres unmarked) [Compound 3]	9.16

---

Each entry below carries its recorded Selectivity (KI O-GlcNAcase/KI HEX).
# TARGET_SYSTEM: Bacteroids fragilis O-GlcNAcase (Bacteroides fragilis)
# Sequence (Q5L8V6 entry or part of it): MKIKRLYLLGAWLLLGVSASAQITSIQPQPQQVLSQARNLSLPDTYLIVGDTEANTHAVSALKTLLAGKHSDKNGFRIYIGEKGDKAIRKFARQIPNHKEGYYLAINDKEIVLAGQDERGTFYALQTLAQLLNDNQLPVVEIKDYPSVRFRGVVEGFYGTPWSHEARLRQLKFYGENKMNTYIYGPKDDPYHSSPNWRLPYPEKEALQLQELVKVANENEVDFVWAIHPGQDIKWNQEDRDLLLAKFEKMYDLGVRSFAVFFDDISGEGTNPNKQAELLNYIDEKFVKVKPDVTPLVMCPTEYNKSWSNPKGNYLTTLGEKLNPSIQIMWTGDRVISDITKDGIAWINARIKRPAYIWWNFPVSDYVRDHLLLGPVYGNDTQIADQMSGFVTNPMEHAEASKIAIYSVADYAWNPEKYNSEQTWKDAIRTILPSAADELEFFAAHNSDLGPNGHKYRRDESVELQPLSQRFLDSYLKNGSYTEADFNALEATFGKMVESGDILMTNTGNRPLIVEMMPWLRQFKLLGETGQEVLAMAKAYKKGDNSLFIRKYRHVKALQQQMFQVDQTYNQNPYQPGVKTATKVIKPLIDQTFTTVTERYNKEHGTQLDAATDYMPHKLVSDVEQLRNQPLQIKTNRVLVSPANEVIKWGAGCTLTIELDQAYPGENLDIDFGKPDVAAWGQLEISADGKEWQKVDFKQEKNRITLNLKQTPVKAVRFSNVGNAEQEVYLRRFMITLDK
# TEST_DESCRIPTION: Michaelis-Menten/Lineweaver-Burk kinetic inhibition of O-GlcNAcase with 4MU-NAG substrate
# Assay type: biochemical
# EXPERIMENTAL_SETUP: Bacteroids fragilis O-GlcNAcase over human HEX B; Table 1
PARAMETER: Selectivity (KI O-GlcNAcase/KI HEX)

MOLECULE	PARAMETER	VAL
CC(=O)NC1CN(CCCCCCCNC(=O)CCCCC2SCC3NC(=O)NC32)C(CO)C(O)C1O (centres unmarked)	Selectivity (KI O-GlcNAcase/KI HEX)	2,600
CC(=O)NC1CN(CCCCCCCN=[N+]=[N-])C(CO)C(O)C1O (centres unmarked)	Selectivity (KI O-GlcNAcase/KI HEX)	56
COc1ccc(CNCCCCCCCN2CC(NC(C)=O)C(O)C(O)C2CO)cc1 (centres unmarked)	Selectivity (KI O-GlcNAcase/KI HEX)	60,000
COc1ccc(CN(CCCCCCCN2CC(NC(C)=O)C(O)C(O)C2CO)Cc2ccc(OC)cc2)cc1 (centres unmarked)	Selectivity (KI O-GlcNAcase/KI HEX)	190,000
CC(=O)NC1CN(CCCCCCCN)C(CO)C(O)C1O (centres unmarked)	Selectivity (KI O-GlcNAcase/KI HEX)	36,000

---

# TARGET_SYSTEM: O-GlcNAcase in human 293T cells (Homo sapiens, UniProt O60502)
# Construct: endogenous in cells; host or cells: 293T cells
# Sequence (O60502 1-916): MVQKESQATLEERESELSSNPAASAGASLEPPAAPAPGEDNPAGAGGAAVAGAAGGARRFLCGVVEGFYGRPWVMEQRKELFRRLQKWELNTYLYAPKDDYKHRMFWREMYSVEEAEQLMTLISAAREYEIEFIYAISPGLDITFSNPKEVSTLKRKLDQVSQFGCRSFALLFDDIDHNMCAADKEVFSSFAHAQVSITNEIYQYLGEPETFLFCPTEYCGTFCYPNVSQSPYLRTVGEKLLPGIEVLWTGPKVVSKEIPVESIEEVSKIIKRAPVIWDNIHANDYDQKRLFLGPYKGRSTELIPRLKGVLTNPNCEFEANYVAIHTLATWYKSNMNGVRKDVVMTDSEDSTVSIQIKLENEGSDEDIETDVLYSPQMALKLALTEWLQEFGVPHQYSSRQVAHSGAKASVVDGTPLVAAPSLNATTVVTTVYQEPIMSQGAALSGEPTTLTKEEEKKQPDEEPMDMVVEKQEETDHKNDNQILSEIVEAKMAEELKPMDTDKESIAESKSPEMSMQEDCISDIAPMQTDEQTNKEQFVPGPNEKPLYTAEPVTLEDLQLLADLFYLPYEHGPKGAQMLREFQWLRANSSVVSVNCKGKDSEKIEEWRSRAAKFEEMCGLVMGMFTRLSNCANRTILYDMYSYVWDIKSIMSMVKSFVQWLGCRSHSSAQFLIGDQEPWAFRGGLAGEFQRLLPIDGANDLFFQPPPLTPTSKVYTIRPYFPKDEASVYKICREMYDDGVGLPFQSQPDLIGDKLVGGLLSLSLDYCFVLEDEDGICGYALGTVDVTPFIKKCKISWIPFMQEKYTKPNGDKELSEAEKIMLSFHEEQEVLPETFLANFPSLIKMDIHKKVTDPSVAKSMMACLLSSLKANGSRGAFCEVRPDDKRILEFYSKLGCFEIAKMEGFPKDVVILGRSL
# TEST_DESCRIPTION: Level of protein-associated O-GlcNAc in treated 293T cells by Western blot
# Type: cell-based
# EXPERIMENTAL_SETUP: 10 μM, 16 hours, Western blot with anti-O-GlcNAc antibody, versus un-treated cells
PARAMETER: level of O-GlcNAc moieties in treated cells

COMPOUND	TARGET_SYSTEM	VAL
CC(=O)N[C@H]1/C(=N/OC(=O)Nc2ccccc2)O[C@H](CO)[C@@H](O)[C@@H]1O [PUGNAc, reference compound]	O-GlcNAcase in human 293T cells (Homo sapiens, UniProt O60502)	notably increased
CN(N=O)C(=O)N[C@@H]1[C@@H](O)[C@H](O)[C@@H](CO)O[C@@H]1O [STZ, reference compound]	O-GlcNAcase in human 293T cells (Homo sapiens, UniProt O60502)	notably increased

Numbers sourced from patent US8466291B2.
